Listed here are compounds together with their documented Sol^y in water.
# protocol notes: solubility in water at room temperature
# Format: physicochemical
# test context: room temperature

CC(=O)O[C@H]1C(=O)[C@@]2(C)[C@H]([C@H](OC(=O)c3ccccc3)[C@]3(O)C[C@H](OC(=O)[C@H](O)[C@@H](NC(=O)c4ccccc4)c4ccccc4)C(C)=C1C3(C)C)[C@]1(OC(C)=O)CO[C@@H]1C[C@@H]2O = 0.3 to 30 mg/L

Now for a further compound.
Name the recorded Sol^y in water for `CO[C@H]1C[C@@H]2CC[C@@H](C)[C@@](O)(O2)C(=O)C(=O)N2CCCC[C@H]2C(=O)O[C@H]([C@H](C)C[C@@H]2CC[C@@H](O)[C@H](OC)C2)CC(=O)[C@H](C)/C=C(\C)[C@@H](O)[C@@H](OC)C(=O)[C@H](C)C[C@H](C)/C=C/C=C/C=C/1C` .
0.69 mg/L
